Attribution: PubChem BioAssay AID2060604

# Test system: 379773-124-R-J2-PDC complex spheroids, viability % test/control
# assayOverview: Anticancer human tumor 379773-124-R-J2-PDC patient-derived endometrial carcinoma cell line growth inhibition [CLK]
# conditionSummary: second compound 0.316 µM; first compound 0.1 µM; stronger effect = lower value
Hi! Could you tag entries with viability, T/C below 20% as y, and those at or above as n? Much appreciated.

compound: CC(CO)NC(=O)c1cc(-c2ccc(Cl)cc2)nn(-c2cnn(C)c2)c1=O (configuration not stated) + CNC(=O)c1ccc(Nc2nc(OC3CCCC3)c3c(-c4ccc5nc(C)oc5c4)c[nH]c3n2)c(OC)c1
answerLabel: n
--
compound: CCc1c2c(nc3ccc(O)cc13)-c1cc3c(c(=O)n1C2)COC(=O)[C@]3(O)CC + CNC(=O)c1ccc(Nc2nc(OC3CCCC3)c3c(-c4ccc5nc(C)oc5c4)c[nH]c3n2)c(OC)c1
answerLabel: y
--
compound: C#Cc1c(F)ccc2cc(O)cc(-c3ncc4c(N5CC6CCC(C5)N6)nc(OCC56CCCN5CC(F)C6)nc4c3F)c12 (configuration not stated) + CNC(=O)c1ccc(Nc2nc(OC3CCCC3)c3c(-c4ccc5nc(C)oc5c4)c[nH]c3n2)c(OC)c1
answerLabel: n
--
compound: O=c1[nH]cc(F)c(=O)[nH]1 + CN1CCN(c2cc(C(=O)Nc3cc4cc(-c5cnn(C)c5)ccc4cn3)ccn2)CC1
answerLabel: n
--
compound: CC(=O)O[C@H]1C(=O)[C@@]2(C)[C@H]([C@H](OC(=O)c3ccccc3)[C@]3(O)C[C@H](OC(=O)[C@H](O)[C@@H](NC(=O)c4ccccc4)c4ccccc4)C(C)=C1C3(C)C)[C@]1(OC(C)=O)CO[C@@H]1C[C@@H]2O + CNC(=O)c1ccc(Nc2nc(OC3CCCC3)c3c(-c4ccc5nc(C)oc5c4)c[nH]c3n2)c(OC)c1
answerLabel: n
--
compound: CCc1c2c(nc3ccc(O)cc13)-c1cc3c(c(=O)n1C2)COC(=O)[C@]3(O)CC + CN1CCN(c2cc(C(=O)Nc3cc4cc(-c5cnn(C)c5)ccc4cn3)ccn2)CC1
answerLabel: y

Alright, here's another compound for you.
I wonder whether CC(CO)NC(=O)c1cc(-c2ccc(Cl)cc2)nn(-c2cnn(C)c2)c1=O (configuration not stated) + CN1CCN(c2cc(C(=O)Nc3cc4cc(-c5cnn(C)c5)ccc4cn3)ccn2)CC1 has viability, T/C below 20%. Can you tell?
n

---

# Tested on: 379773-124-R-J2-PDC complex spheroids, viability % test/control
# assayOverview: Anticancer human tumor 379773-124-R-J2-PDC cell line growth inhibition [CLK];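 further: compound exposure lasted seven days before the viability readout; 100% = DMSO vehicle control wells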
# conditionSummary: second compound 0.316 µM; first compound 0.00949 µM; stronger effect = lower value
property: viability, T/C (%)
Provide only the numeric value, understood in %.

Looking up NC(=O)C(=Cn1cnc(-c2cc(C(F)(F)F)cc(C(F)(F)F)c2)n1)c1cncnc1 + CN1CCN(c2cc(C(=O)Nc3cc4cc(-c5cnn(C)c5)ccc4cn3)ccn2)CC1 , I found its viability, T/C recorded as 16.4

Looking up CC(C)CC(NC(=O)C(Cc1ccccc1)NC(=O)c1cnccn1)B(O)O (stereo not drawn) + CN1CCN(c2cc(C(=O)Nc3cc4cc(-c5cnn(C)c5)ccc4cn3)ccn2)CC1 , I found its viability, T/C recorded as 0.49

Looking up C=CC(=O)Nc1cc(Nc2nccc(-c3cn(C)c4ccccc34)n2)c(OC)cc1N(C)CCN(C)C + CNC(=O)c1ccc(Nc2nc(OC3CCCC3)c3c(-c4ccc5nc(C)oc5c4)c[nH]c3n2)c(OC)c1 , I found its viability, T/C recorded as 32
